target: Glycogen synthase kinase-3 beta (Homo sapiens) (UniProt P49841); assay: binding affinity to recombinant GSK3beta – biophysical, surface plasmon resonance, microfluidics, dry powder samples, dose response (AID 624108)
Sequence (P49841 whole entry, looked up): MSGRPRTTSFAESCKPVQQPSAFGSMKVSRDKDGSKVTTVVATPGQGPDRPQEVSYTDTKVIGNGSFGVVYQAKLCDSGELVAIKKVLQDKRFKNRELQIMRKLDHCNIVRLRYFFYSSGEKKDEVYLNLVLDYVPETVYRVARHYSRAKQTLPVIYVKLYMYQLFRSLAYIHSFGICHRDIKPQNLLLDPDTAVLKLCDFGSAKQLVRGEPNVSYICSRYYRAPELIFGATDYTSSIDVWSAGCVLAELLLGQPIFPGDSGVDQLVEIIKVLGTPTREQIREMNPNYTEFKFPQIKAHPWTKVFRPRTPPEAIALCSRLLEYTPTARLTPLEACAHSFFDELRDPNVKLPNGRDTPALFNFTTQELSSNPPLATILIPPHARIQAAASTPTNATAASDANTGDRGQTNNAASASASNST
Active and inactive are the calls of the source. No rule for the calls is given here.
The reply should be one of these categories: True for active, False for inactive

Asked: Assay result, entry Cc1[nH]nc2c1C(c1ccsc1)C1=C(CC(C)(C)CC1=O)N2 (stereo not given) — outcome?
Given back: True

Asked: Can you handle Cc1[nH]nc2c1C(C)(c1ccccc1)C1=C(CC(C)(C)CC1=O)N2 (stereo not given) next?
Given back: True

Asked: Now try Cc1[nH]nc2c1C(c1ccc(F)cc1Cl)C1=C(CC(C)(C)CC1=O)N2 (stereo not given) .
Given back: False

Asked: Another molecule: Cc1[nH]nc2c1C(c1ccc(Br)cn1)C1=C(CC(C)(C)CC1=O)N2 (stereo not given)
Given back: False

Asked: Input COc1ccccc1C1C2=C(CC(C)(C)CC2=O)Nc2n[nH]c(-c3ccccc3)c21 (stereo not given)
Given back: False

Asked: Thanks! And Cc1[nH]nc2c1C(c1cccc(Cl)c1)C1=C(CC(C)(C)CC1=O)N2 (stereo not given) ?
Given back: True

Asked: Now consider Cc1[nH]nc2c1C(c1cccc3nonc13)C1=C(CC(C)(C)CC1=O)N2 (stereo not given) .
Given back: False

Asked: # iterate: Cc1[nH]nc2c1[C@@H](c1ccccc1C(F)(F)F)C1=C(CC(C)(C)CC1=O)N2
Given back: False

Asked: Field entry: Cc1[nH]nc2c1C(c1ccccc1Cl)C1=C(CC(C)(C)CC1=O)N2 (stereo not given)
Given back: True

Asked: Next up: CC1(C)CC(=O)C2=C(C1)Nc1n[nH]c(C(F)(F)F)c1C2c1cc(F)ccc1C(F)(F)F (stereo not given)
Given back: True

Asked: Also need Cc1[nH]nc2c1C(C1CC1)C1=C(CC(C)(C)CC1=O)N2 (stereo not given) , thanks.
Given back: False

Asked: Same thing, different molecule: CC1(C)CC(=O)C2=C(C1)Nc1n[nH]c(C(F)(F)F)c1C2c1ccccc1F (stereo not given)
Given back: False

Asked: Please give the result for Cc1[nH]nc2c1[C@H](c1ccccc1C(F)(F)F)C1=C(CC(C)(C)CC1=O)N2 too.
Given back: True

Asked: What would you report for COc1ccccc1C1C2=C(CC(C)(C)CC2=O)Nc2n[nH]c(C(C)C)c21 (stereo not given) ?
Given back: False

Asked: Ok, now CC1(C)CC(=O)/C(=C\c2cccc(F)c2C(F)(F)F)C(=Nc2cc(C(F)(F)F)[nH]n2)C1
Given back: True

Values compiled from PubChem BioAssay AID624108.
